Target: HLA-B*27:05
Assay: IEDB peptide-MHC binding, purified MHC/direct/fluorescence; filed as Kd, often an IC50 or EC50 that approximates it; bounds were set here for any values at or beyond the usual limits of such assays
Settings: source organism: Zaire ebolavirus
pKd: −log10 of the molar value.
PROPERTY_MEASURED: pKd

For reference, reported pKd for RLAKLTEAI stands at ≤ 4.70

* * *

Target: HLA-A*02:01
Assay: IEDB peptide-MHC binding, purified MHC/direct/fluorescence; filed as Kd, often an IC50 or EC50 that approximates it; bounds were set here for any values at or beyond the usual limits of such assays
Settings: source organism: La Crosse virus
pKd: −log10 of the molar value.
PROPERTY_MEASURED: pKd

For reference, reported pKd for YRKPSGGVF stands at ≤ 4.70

* * *

Target: HLA-B*08:01
Assay: IEDB peptide-MHC binding, purified MHC/direct/fluorescence; filed as Kd, often an IC50 or EC50 that approximates it; bounds were set here for any values at or beyond the usual limits of such assays
Conditions: source organism: Influenza A virus (A/South Carolina/1/1918(H1N1))
PROPERTY_MEASURED: Kd

For reference, reported Kd for RLFFKCIYR stands at ≥ 20 µM

* * *

Molecular target: HLA-A*02:03
Experiment: IEDB peptide-MHC binding, purified MHC/direct/fluorescence; filed as Kd, often an IC50 or EC50 that approximates it; bounds were set here for any values at or beyond the usual limits of such assays
Conditions: source organism: Choclo virus
pKd: −log10 of the molar value.
PROPERTY_MEASURED: pKd

Entry PELGAFFAI ; assay system HLA-A*02:03; pKd recorded at ≤ 4.70

* * *

Biological target: HLA-B*35:01
Experiment: IEDB peptide-MHC binding, purified MHC/competitive/fluorescence; filed as Kd, often an IC50 or EC50 that approximates it; bounds were set here for any values at or beyond the usual limits of such assays
Conditions: source organism: Human immunodeficiency virus 1
PROPERTY_MEASURED: Kd (µM)
One number for each entry, in µM.

For reference, reported Kd for KSLFNTIAVLY stands at 1.01

* * *

Target: HLA-B*40:13
Assay: IEDB peptide-MHC binding, purified MHC/competitive/fluorescence; filed as Kd, often an IC50 or EC50 that approximates it; bounds were set here for any values at or beyond the usual limits of such assays
Conditions: source organism: Escherichia coli B171
PROPERTY_MEASURED: pKd
Answers are plain numbers, as −log10 of the molar value.

For reference, reported pKd for HELSLFWPL stands at 7.52

* * *

Biological target: HLA-B*07:02
Assay: IEDB peptide-MHC binding, purified MHC/competitive/fluorescence; filed as Kd, often an IC50 or EC50 that approximates it; bounds were set here for any values at or beyond the usual limits of such assays
Settings: source organism: Influenza A virus (A/X-31(H3N2))
PROPERTY_MEASURED: Kd (nM)
Numbers only, in nM.

For reference, reported Kd for RARIKTRLFTI stands at 733

* * *

Record form. Attribute: Kd. Fill in for each entry.
Target: HLA-A*30:01
Assay: IEDB peptide-MHC binding, purified MHC/competitive/radioactivity; filed as Kd, often an IC50 or EC50 that approximates it; bounds were set here for any values at or beyond the usual limits of such assays
Conditions: source organism: Dengue virus 2 Jamaica/1409/1983
Give bare numbers, in nM.

Report Kd for every entry below.
1. NSRSTSLSV
2. AVSRGSAKLR
3. ITVIDLDPIP
4. DARIYSDPLA

Output line:
1: 14.9; 2: 1210; 3: 295; 4: 744
